# target-desc: BACE (Homo sapiens, UniProt P56817)
# Sequence (P56817 46-501): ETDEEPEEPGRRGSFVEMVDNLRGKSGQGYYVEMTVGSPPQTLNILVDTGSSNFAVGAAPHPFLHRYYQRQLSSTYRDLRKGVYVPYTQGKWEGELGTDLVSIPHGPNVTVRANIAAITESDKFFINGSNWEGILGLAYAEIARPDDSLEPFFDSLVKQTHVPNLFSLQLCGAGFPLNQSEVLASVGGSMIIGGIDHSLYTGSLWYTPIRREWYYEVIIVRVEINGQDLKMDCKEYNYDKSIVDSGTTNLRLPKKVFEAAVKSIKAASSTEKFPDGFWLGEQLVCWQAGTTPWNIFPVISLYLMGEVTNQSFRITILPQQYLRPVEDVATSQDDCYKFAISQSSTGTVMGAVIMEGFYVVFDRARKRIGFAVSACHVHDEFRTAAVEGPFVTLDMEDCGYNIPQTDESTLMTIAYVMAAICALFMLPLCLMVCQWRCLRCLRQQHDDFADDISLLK
pKi: −log10 of the molar value.
Reported pKi values follow for various molecules

Take a look at these entries with their results.
O=C1c2ccccc2C(=O)N1CC1CNCCC1c1ccc(COc2ccccc2C(F)(F)F)cc1 (stereo not drawn): 4.52 to 5.52
O=C(c1ccc2ccccc2c1)n1c2c(c3cc(OCc4cc(C(F)(F)F)ccc4Cl)ccc31)CCNC2: > 5.52
O=S(=O)(Nc1cc(-c2ccc(Cl)c(Cl)c2)ccc1N1CCNCC1)c1ccc(-c2ccc(Cl)cc2)cc1: 4.52 to 5.52
O=C(Nc1cc(-c2cccc(C(F)(F)F)c2)ccc1N1CCNCC1)c1cccc2ccccc12: 4.52 to 5.52
O=[N+]([O-])c1cccc(-c2cc(COc3ccccc3C(F)(F)F)c(C3=CCNCC3)cc2COc2ccccc2C(F)(F)F)c1: > 5.52

Lookup result for FC(F)(F)c1cccc(-c2cc(COc3ccccc3C(F)(F)F)c(C3=CCNCC3)cc2COc2ccccc2C(F)(F)F)c1 ; measured pKi: 4.52 to 5.52

Lookup result for N#Cc1ccc(-c2ccc(N3CCNCC3)c(NC(=O)c3cccc4ccccc34)c2)cc1 ; measured pKi: 4.52 to 5.52

Lookup result for COc1cc(COc2ccc3c(c2)c2c(n3Cc3cccc4ccccc34)CNCC2)cc(OC)c1 ; measured pKi: > 5.52

Lookup result for O=C(Nc1cc(C(F)(F)F)ccc1N1CCNCC1)c1cnc2ccccc2n1 ; measured pKi: 4.52 to 5.52

meta.source: patent US20030095958A1
